Give measured koff for each item. Keep answers brief.
measurementTarget: T1, human recombinant soluble CD73 protein (human, UniProt P21589 27-547)
T1 construct: also called huCD73; rhCD73
T1 sequence: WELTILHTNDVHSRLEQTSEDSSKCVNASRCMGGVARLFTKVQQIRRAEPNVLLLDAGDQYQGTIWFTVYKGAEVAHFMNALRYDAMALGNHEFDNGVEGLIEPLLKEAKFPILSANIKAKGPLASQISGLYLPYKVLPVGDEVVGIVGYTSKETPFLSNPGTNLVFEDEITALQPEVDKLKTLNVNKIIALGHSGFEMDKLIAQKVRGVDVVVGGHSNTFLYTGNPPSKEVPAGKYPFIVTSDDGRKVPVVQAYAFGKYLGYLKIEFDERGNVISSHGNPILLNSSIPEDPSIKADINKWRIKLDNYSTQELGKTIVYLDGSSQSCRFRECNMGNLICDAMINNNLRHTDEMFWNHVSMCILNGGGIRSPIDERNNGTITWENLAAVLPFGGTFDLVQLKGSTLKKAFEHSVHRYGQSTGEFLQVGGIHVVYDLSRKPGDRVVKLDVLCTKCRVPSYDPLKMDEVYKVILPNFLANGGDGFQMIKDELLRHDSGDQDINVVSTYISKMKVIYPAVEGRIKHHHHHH
assayInfo: SPR, Ab captured on Protein A, soluble huCD73 as analyte
Numbers only here, please. The scale is s⁻¹.

q: Entry H0L1 (antibody, human IgG1, V domains shown, H0 VH limits counted by alignment with H1) VH: QVQLVQSGAEVKKPGASVKVSCKASGYTFTSYNMYWVRQAPGQRLEWMGYIDPYNGGSSYNLTFKGRVTITRDTSASTAYMELSSLRSEDTAVYYCARGYGNYKAWFAYWGQGTLVTVSS VL: DIQMTQSPSSLSASVGDRVTITCKASQSVSNDVAWYQQKPGKAPKLLIYYASTRYTGVPSRFSGSGYGTDFTFTISSLQPEDIATYYCQQDYSSLTFGQGTKLEIK has what koff?
a: 0.000127

q: # input binder: H2L3 (antibody, human IgG1, V domains shown) VH: QIQLVQSGAEVKKPGASVKVSCKASGYAFTSYNMYWVRQAPGQSLEWMGYIDPYNGGSSYNLTFKGRVTITVDKSASTAYMELSSLRSEDTAVYYCARGYGNYKAWFAYWGQGTLVTVSS VL: DVQMTQSPSSLSASVGDRVTITCKASQSVSNDVAWYQQKPGKAPKLLIYYASTRYTGVPDRFSGSGYGTDFTFTISSLQPEDIATYYCQQDYSSLTFGQGTKLEIK ; wanted: its koff
a: 0.000123

q: Any idea what its koff is? The binder is H1L0 (antibody, human IgG1, V domains shown, L0 VL limits counted by alignment with L1) VH: QIQLVQSGAEVKKPGASVKVSCKASGYTFTSYNMYWVRQAPGQRLEWMGYIDPYNGGSSYNLTFKGRVTITRDKSASTAYMELSSLRSEDTAVYYCARGYGNYKAWFAYWGQGTLVTVSS VL: DIQMTQSPSSLSASVGDRVTITCKASQSVSNDVAWYQQKPGKAPKLLIYYASTRYTGVPSRFSGSGSGTDFTFTISSLQPEDIATYYCQQDYSSLTFGQGTKLEIK
a: 0.00296
